Assign Ki to each entry below.
- study-target: PTP1B (Homo sapiens)
- Sequence (P18031 whole entry): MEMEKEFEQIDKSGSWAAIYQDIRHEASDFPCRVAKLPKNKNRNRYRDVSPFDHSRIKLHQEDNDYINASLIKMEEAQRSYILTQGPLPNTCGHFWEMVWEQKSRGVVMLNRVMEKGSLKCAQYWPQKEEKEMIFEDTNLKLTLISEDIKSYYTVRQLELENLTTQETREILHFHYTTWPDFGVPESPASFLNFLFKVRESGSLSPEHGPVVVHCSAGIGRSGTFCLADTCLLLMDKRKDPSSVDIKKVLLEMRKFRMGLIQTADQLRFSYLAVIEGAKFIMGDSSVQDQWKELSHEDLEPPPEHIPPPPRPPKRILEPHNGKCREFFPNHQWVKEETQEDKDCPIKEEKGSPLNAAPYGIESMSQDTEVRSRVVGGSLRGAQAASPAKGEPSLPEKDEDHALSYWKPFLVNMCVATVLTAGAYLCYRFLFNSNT
- assay-summary: Enzyme kinetic assay
- Assay type: biochemical
- condition-notes: Ki (inhibition constant), estimated using Dixon plots
Remember to quote the unit after the number.

Consider the compound shown here: O=C1c2c(O)cc(O)cc2O[C@H](c2ccc(O)cc2)[C@H]1O [Compound 6, dihydrokaempferol] What is its recorded Ki? 34.7 µM

Can you look up the measured Ki of O=c1cc(-c2ccc(O)cc2)oc2cc(O[C@@H]3O[C@H](CO)[C@@H](O)[C@H](O)[C@H]3O)cc(O)c12 [Compound 13, apigenin-7-O-β-D-glucopyranoside] for me? 0.18 µM

Please look up its Ki: O=c1cc(-c2ccc(O)cc2)oc2cc(O)cc(O)c12 [Compound 8, apigenin] 2.9 µM

What value of measured Ki is listed for CC1(C)C=Cc2c(cc(O)c3c2O[C@H](c2ccccc2)[C@@H](O)C3=O)O1 [Compound 1] ? 0.07 µM

Reported Ki for CC1(C)C=Cc2c(cc(O)c3c2O[C@H](c2ccc(O)cc2)[C@@H](O)C3=O)O1 [Compound 5, yukovanol] : what is it? 3.46 µM

Ki lookup needed for CC1(C)C=Cc2c(cc(O)c3c(=O)cc(-c4ccc(O)cc4)oc23)O1 [Compound 7, atalantoflavone] , thanks. 0.45 µM

If you can, please state the reported Ki value of CC1(C)C=Cc2c(cc(O)c3c2O[C@H](c2ccccc2)[C@H](O)C3=O)O1 [Compound 2] . 1.04 µM

Entry O=c1cc(-c2ccc(O)cc2O)oc2cc(O)cc(O)c12 [Compound 10, norartocarpetin] : reported Ki = ? 2.71 µM
